This listing pairs compounds with measured inhibition at 100 µM.
- SUBJECT_OF_TEST: UniProtKB Q99497
- METHOD: FP assay with Rhodamine110 probe JYQ-107 (IC50 and hit validation)
- Assay type: binding
- Parameters: GST (N, cleaved yes); made in house; host or cells: E. coli BL21(DE3) Rosetta2
- EXPERIMENTAL_PARAMETERS: 100 µM compound, PARK7 0.2 μM, 1 h preincubation, JYQ-107 20 nM; read-out: FP assay %Inhibiton (100 µM)
Hi! Could you send only the number? It should be in %, unit omitted.

QUERY: Give the measured inhibition at 100 µM of COc1ccccc1CN(C)C(=O)CCl .
RESULT: 100

QUERY: Another compound to check: O=C(CCl)c1ccccn1
RESULT: 23.5

QUERY: Entry to check: O=C(CCl)c1cscn1
RESULT: 51.6

QUERY: Could you do the same for NC(=O)c1csc(C(=O)CCl)c1 , please?
RESULT: 68

QUERY: Now try Cc1cc(C(=O)CCl)c(C)[nH]1 .
RESULT: 54.4

QUERY: Also check CC1=NOC(=O)C1CC(=O)O (centres unmarked)
RESULT: 100

QUERY: Then this compound: CC1CCC(N(C)C(=O)CCl)CC1 (centres unmarked)
RESULT: 100

QUERY: Note, next up: O=C(CCl)c1ccc(F)c(Cl)c1
RESULT: 88.1

QUERY: What do you get for O=C(CCl)Nc1ccc(N2CCCCCC2)cc1 ?
RESULT: 100

QUERY: # repeat for CCC(C)c1ccc(NC(=O)CCl)cc1 (centres unmarked)
RESULT: 100

###

- SUBJECT_OF_TEST: PARK7 (Homo sapiens, UniProt Q99497)
- Sequence (Q99497 1-189): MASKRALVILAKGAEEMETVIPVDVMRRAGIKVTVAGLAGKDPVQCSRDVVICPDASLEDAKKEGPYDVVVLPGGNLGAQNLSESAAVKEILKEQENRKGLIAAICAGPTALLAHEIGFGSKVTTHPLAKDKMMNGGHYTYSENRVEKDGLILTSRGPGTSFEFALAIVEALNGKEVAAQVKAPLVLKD
- METHOD: FP assay with Rhodamine110 probe JYQ-107 (IC50 and hit validation)
- Assay type: binding
- Design: GST (N, cleaved yes); made in house; host or cells: E. coli BL21(DE3) Rosetta2
- EXPERIMENTAL_PARAMETERS: read-out: FP assay %Inhibiton (12.5 µM)
Measured inhibition at 12.5 µM, listed per entry.
Use % as the unit, but write only the number.

These recorded examples may help you get a feel for the data.
QUERY: What value of measured inhibition at 12.5 µM is listed for O=C1CCC(CC(=O)Nc2cccc(S(=O)(=O)F)c2)CC1 ?
RESULT: 0

QUERY: Try the compound CC(C)CC(=O)NNS(=O)(=O)c1cccc(S(=O)(=O)F)c1
RESULT: 100

QUERY: Would you mind doing CCCc1nnc(NS(=O)(=O)c2cccc(S(=O)(=O)F)c2)o1 as well?
RESULT: 100

New cases:
QUERY: Value lookup for inhibition at 12.5 µM; key = O=S(=O)(F)c1cccc(S(=O)(=O)Nc2cccnc2O)c1
RESULT: 100

QUERY: For O=C(NNS(=O)(=O)c1cccc(S(=O)(=O)F)c1)C1CCC1 then?
RESULT: 100

QUERY: Now try COc1ccc(NS(=O)(=O)c2ccc(S(=O)(=O)F)cc2)cn1 .
RESULT: 79.5

QUERY: Next: CCn1ncnc1NS(=O)(=O)c1cccc(S(=O)(=O)F)c1
RESULT: 100

QUERY: Same for Cn1c(=O)ccn(CC(=O)Nc2cccc(S(=O)(=O)F)c2)c1=O
RESULT: 80.3

###

Recorded inhibition at 12.5 µM for the following molecules
- SUBJECT_OF_TEST: PARK7 (Homo sapiens, UniProt Q99497)
- Sequence (Q99497 1-189): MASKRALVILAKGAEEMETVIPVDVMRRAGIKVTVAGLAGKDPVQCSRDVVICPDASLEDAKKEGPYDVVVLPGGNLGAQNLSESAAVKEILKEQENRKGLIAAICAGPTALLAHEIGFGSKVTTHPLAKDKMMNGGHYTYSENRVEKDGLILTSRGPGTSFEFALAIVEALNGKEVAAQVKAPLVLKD
- METHOD: FP assay with Rhodamine110 probe JYQ-107 (IC50 and hit validation)
- Assay type: binding
- Design: GST (N, cleaved yes); made in house; host or cells: E. coli BL21(DE3) Rosetta2
- EXPERIMENTAL_PARAMETERS: 12.5 µM compound, PARK7 0.2 μM, 1 h preincubation, JYQ-107 20 nM; read-out: FP assay %Inhibiton (12.5 µM)
A number alone suffices; assume %.

Guide cases for inhibition at 12.5 µM, answers given:
QUERY: Any idea what inhibition at 12.5 µM was measured for O=C(CCl)c1ccccn1 ?
RESULT: 0

QUERY: Request: Cc1cc(C(=O)CCl)c(C)[nH]1
RESULT: 11.4

QUERY: Now try O=C(CCl)c1cscn1 .
RESULT: 4.5

New cases:
QUERY: Recorded inhibition at 12.5 µM of CC1CCc2ccccc2N1C(=O)CCl (stereo not drawn) , please.
RESULT: 100

QUERY: Again, but for NC(=O)c1csc(C(=O)CCl)c1
RESULT: 23.8

QUERY: Same question for CC(c1ccccc1)N(C)C(=O)CCl (stereo not drawn) please.
RESULT: 88.4

QUERY: Try this molecule too: O=C(CCl)Nc1ccc(N2CCCCCC2)cc1
RESULT: 84.2

QUERY: Ok, now O=C(CCl)c1ccc(F)c(Cl)c1
RESULT: 20.7

QUERY: Likewise for CCc1ccc(NC(=O)CCl)cc1 ?
RESULT: 90.8

QUERY: Now the same for O=C(CCl)C1CCOCC1
RESULT: 100

QUERY: # repeat for O=C(O)c1csc(C(=O)CCl)c1
RESULT: 100

QUERY: Next molecule: CC(c1ccc(Cl)cc1)N(C)C(=O)CCl (stereo not drawn)
RESULT: 79.5

###

Reported values of inhibition at 37.5 µM for individual entries
- SUBJECT_OF_TEST: PARK7 (Homo sapiens, UniProt Q99497)
- Sequence (Q99497 1-189): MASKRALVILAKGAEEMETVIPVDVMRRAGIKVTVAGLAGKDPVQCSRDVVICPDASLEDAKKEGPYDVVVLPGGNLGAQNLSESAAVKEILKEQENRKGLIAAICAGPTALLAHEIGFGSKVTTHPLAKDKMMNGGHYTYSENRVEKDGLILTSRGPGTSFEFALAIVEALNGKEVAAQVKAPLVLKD
- METHOD: FP assay with Rhodamine110 probe JYQ-107 (IC50 and hit validation)
- Type: binding
- Parameters: GST (N, cleaved yes); made in house; host or cells: E. coli BL21(DE3) Rosetta2
- EXPERIMENTAL_PARAMETERS: read-out: FP assay %Inhibiton (37.5 µM)
- Description: The assay was performed using the conditions as described above with a reaction volume of 20 μL per well in triplicate. Stock solutions of JYQ-88 of 1 and 0.1 mM were prepared. […] The FP signal was monitored with a BMG Labtech PHERAstar plate reader (λex/em 480/520 nm) for 2 h. The validation was performed using the conditions as described above with a reaction volume of 20 μL per well in triplicate. […] The FP signal was monitored with a BMG Labtech PHERAstar plate reader (λex/em 480/520 nm) for 2 h. […]
Provide only the numeric value, understood in %.

QUERY: // returns reported inhibition at 37.5 µM for input CCCc1nnc(NS(=O)(=O)c2cccc(S(=O)(=O)F)c2)o1
RESULT: 100

***
QUERY: # inhibition at 37.5 µM lookup, item Cn1c(=O)ccn(CC(=O)Nc2cccc(S(=O)(=O)F)c2)c1=O
RESULT: 78.2

QUERY: Then this molecule: CC(C)CC(=O)NNS(=O)(=O)c1cccc(S(=O)(=O)F)c1
RESULT: 100

QUERY: Follow-up item: O=C(NNS(=O)(=O)c1cccc(S(=O)(=O)F)c1)C1CCC1
RESULT: 100

QUERY: Thanks! And O=S(=O)(F)c1cccc(S(=O)(=O)Nc2cccnc2O)c1 ?
RESULT: 100

QUERY: Queued: CCn1ncnc1NS(=O)(=O)c1cccc(S(=O)(=O)F)c1
RESULT: 100

QUERY: Follow-up entry: O=C1CCC(CC(=O)Nc2cccc(S(=O)(=O)F)c2)CC1
RESULT: 0

QUERY: Now consider COc1ccc(NS(=O)(=O)c2ccc(S(=O)(=O)F)cc2)cn1 and answer again.
RESULT: 83.8

###

- SUBJECT_OF_TEST: PARK7 (Homo sapiens)
- Sequence (Q99497 1-189): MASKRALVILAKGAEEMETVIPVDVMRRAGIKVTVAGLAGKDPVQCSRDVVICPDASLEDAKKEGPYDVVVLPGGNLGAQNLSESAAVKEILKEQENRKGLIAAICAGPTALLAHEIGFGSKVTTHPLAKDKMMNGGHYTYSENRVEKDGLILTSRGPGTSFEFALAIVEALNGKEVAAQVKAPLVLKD
- METHOD: High-throughput FP screen of covalent fragment library with JYQ-107
- Type: binding
- Design: GST (N, cleaved yes); made in house; host or cells: E. coli BL21(DE3) Rosetta2
- EXPERIMENTAL_PARAMETERS: HTS, 100 μM compound, PARK7 0.2 μM, 2 h preincubation, JYQ-107 20 nM, 1536-well
Readings of Inhibition % for the listed compounds
Form entry: value (%) — number only.

Here are 2 compounds together with their reported answers.
QUERY: Using the record for N#CC=Cc1cccc2cccnc12 , report its Inhibition %.
RESULT: -0.97

QUERY: // query: C#CC(=O)N1CCc2cc(C(=O)O)ccc21
RESULT: 1.76

New cases:
QUERY: Can you look up the measured Inhibition % of O=C(NC1CCN(Cc2ccccc2)CC1)n1ccnc1 for me?
RESULT: 1.56

QUERY: Now this one: CC1(C)CN(C(=O)CC2OCCCO2)CC2(CCCC2)O1
RESULT: 1.97

QUERY: What do we get for NCC1CCN(C(=O)C=Cc2ccc(Cl)s2)C1 (centres unmarked) ?
RESULT: -0.36
